Source: paper PMC11968394

- assayed.system: CLK2 (Homo sapiens)
- Sequence (P49760 whole entry, species assumed): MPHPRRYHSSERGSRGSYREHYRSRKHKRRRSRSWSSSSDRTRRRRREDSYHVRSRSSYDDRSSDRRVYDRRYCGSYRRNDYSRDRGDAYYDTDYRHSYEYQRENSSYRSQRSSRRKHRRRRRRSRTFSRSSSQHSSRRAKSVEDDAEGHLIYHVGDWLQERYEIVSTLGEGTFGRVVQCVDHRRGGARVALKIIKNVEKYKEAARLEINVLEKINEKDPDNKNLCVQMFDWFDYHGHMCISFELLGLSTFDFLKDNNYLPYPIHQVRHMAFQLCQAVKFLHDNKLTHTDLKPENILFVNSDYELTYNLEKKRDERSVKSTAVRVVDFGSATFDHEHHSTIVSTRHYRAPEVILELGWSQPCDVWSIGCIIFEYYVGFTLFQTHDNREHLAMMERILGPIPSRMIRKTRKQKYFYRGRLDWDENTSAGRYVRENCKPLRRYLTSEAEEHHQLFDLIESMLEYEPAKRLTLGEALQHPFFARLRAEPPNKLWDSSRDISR
assay.endpoint: IC50 (nM)

- CN1CCN(c2ccc(OC(F)(F)F)c(Nc3ncc4c(n3)-c3c(c(C(N)=O)nn3CCO)CC4)c2)CC1 [NMS-P937]: 37
- [2H]C1([2H])N(C)C([2H])([2H])C([2H])([2H])N(c2ccc(OC(F)(F)F)c(Nc3ncc4c(n3)-c3c(c(C(N)=O)nn3CCO)CC4)c2)C1([2H])[2H] [PR00012]: 24.8

---

- assayed.system: TSSK1 (Homo sapiens)
- Sequence (Q9BXA7 whole entry, species assumed): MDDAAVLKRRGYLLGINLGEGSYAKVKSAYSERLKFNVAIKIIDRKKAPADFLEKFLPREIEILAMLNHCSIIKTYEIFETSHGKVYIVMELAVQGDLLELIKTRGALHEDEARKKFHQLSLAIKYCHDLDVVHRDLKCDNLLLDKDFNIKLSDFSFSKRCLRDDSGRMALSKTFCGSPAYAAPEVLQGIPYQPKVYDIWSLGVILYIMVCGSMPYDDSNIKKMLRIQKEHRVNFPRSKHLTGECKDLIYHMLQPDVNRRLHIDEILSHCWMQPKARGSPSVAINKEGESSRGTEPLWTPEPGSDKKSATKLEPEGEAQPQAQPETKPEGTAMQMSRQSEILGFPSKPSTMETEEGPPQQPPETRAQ
# key: entry, value: IC50
assay.endpoint: IC50

- [2H]C1([2H])N(C)C([2H])([2H])C([2H])([2H])N(c2ccc(OC(F)(F)F)c(Nc3ncc4c(n3)-c3c(c(C(N)=O)nn3CCO)CC4)c2)C1([2H])[2H]: 53.2 nM
- CN1CCN(c2ccc(OC(F)(F)F)c(Nc3ncc4c(n3)-c3c(c(C(N)=O)nn3CCO)CC4)c2)CC1: 77.8 nM

---

- test.method.notes: Caco-2 permeability assay
- Assay type: in vitro ADME
- recorded.conditions: human, Caco-2, Caco-2, B-A; read-out: Recovery B-A%
assay.endpoint: recovery at 2 h, 5 μM (%)

• [2H]C1([2H])N(C)C([2H])([2H])C([2H])([2H])N(c2ccc(OC(F)(F)F)c(Nc3ncc4c(n3)-c3c(c(C(N)=O)nn3CCO)CC4)c2)C1([2H])[2H] = 89.7
• CN1CCN(c2ccc(OC(F)(F)F)c(Nc3ncc4c(n3)-c3c(c(C(N)=O)nn3CCO)CC4)c2)CC1 = 93.3
• C[C@H]1O[C@@H](O[C@H]2[C@@H](O)C[C@H](O[C@H]3[C@@H](O)C[C@H](O[C@H]4CC[C@@]5(C)[C@H](CC[C@@H]6[C@@H]5C[C@@H](O)[C@]5(C)[C@@H](C7=CC(=O)OC7)CC[C@]65O)C4)O[C@@H]3C)O[C@@H]2C)C[C@H](O)[C@@H]1O = 101
• CC(C)NCC(O)COc1cccc2ccccc12 (stereo not shown) = 84.9

---

pIC50 overview
Protein target, amino acids: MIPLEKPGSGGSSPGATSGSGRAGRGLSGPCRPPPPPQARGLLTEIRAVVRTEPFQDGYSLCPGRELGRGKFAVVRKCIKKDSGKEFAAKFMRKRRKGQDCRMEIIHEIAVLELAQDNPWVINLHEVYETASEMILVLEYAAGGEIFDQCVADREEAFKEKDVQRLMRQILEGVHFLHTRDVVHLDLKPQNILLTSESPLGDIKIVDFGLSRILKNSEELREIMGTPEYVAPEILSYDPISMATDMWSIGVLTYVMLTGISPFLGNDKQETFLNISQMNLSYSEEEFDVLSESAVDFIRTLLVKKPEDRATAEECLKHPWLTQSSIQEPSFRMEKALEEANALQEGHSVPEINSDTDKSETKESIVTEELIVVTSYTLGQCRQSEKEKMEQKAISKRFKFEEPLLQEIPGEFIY
pIC50: −log10 of the molar value.
assay.endpoint: pIC50

* CN1CCN(c2ccc(OC(F)(F)F)c(Nc3ncc4c(n3)-c3c(c(C(N)=O)nn3CCO)CC4)c2)CC1 | 7.35
* [2H]C1([2H])N(C)C([2H])([2H])C([2H])([2H])N(c2ccc(OC(F)(F)F)c(Nc3ncc4c(n3)-c3c(c(C(N)=O)nn3CCO)CC4)c2)C1([2H])[2H] | 7.31

---

- test.method.notes: Pharmacokinetics in PSN1 tumor CDX model, M-NSG mice
- Assay type: in vivo
- recorded.conditions: female, mouse, serum; PSN1 tumor-bearing M-NSG mice, oral, 60 mg/kg; read-out: T1/2 in blood (converted)
assay.endpoint: half-life

- CN1CCN(c2ccc(OC(F)(F)F)c(Nc3ncc4c(n3)-c3c(c(C(N)=O)nn3CCO)CC4)c2)CC1 [NMS-P937]: 2.4 h
- [2H]C1([2H])N(C)C([2H])([2H])C([2H])([2H])N(c2ccc(OC(F)(F)F)c(Nc3ncc4c(n3)-c3c(c(C(N)=O)nn3CCO)CC4)c2)C1([2H])[2H] [PR00012]: 5.5 h
